# experiment_summary: Approximate solubilities (solvent added until a solution forms)
# Format: physicochemical
# test_settings: ethanol, 53 °C, organic solvent or mixture, ethanol, 53° C.; read-out: Solubility (approximate) at elevated temperature
parameter_measured: solubility (mg/mL)
Value expressed in mg/mL; do not type the unit.

Give the reported solubility for this compound. Cl.NCCc1c[nH]c(=S)n1[C@H]1COc2c(F)cc(F)cc2C1
11

====

# experiment_summary: Approximate solubilities (solvent added until a solution forms)
# Type: physicochemical
# test_settings: ethanol:water 90:10, organic solvent or mixture, ethanol:water 90:10 (9:1); read-out: Solubility (approximate)
parameter_measured: solubility

Give the reported solubility for this molecule. Cl.NCCc1c[nH]c(=S)n1[C@H]1COc2c(F)cc(F)cc2C1 [Form A]
> 21 mg/mL

====

# experiment_summary: Approximate solubilities (solvent added until a solution forms)
# Assay type: physicochemical
# test_settings: water; read-out: Solubility (approximate)
parameter_measured: solubility

Give the reported solubility for this compound. Cl.NCCc1c[nH]c(=S)n1[C@H]1COc2c(F)cc(F)cc2C1 [Form C]
23 mg/mL

====

# experiment_summary: Approximate solubilities (solvent added until a solution forms)
# Type: physicochemical
# test_settings: 1,4-dioxane:water 9:1, organic solvent or mixture, 1,4-dioxane:water 9:1; read-out: Solubility (approximate)
parameter_measured: solubility

Give the reported solubility for this compound. Cl.NCCc1c[nH]c(=S)n1[C@H]1COc2c(F)cc(F)cc2C1 [Form C]
> 22 mg/mL

====

# experiment_summary: Approximate solubilities (solvent added until a solution forms)
# Format: physicochemical
# test_settings: hexafluoro isopropanol, organic solvent or mixture, hexafluoro isopropanol; read-out: Solubility (approximate)
parameter_measured: solubility (µg/mL)
Value expressed in µg/mL; do not type the unit.

Give the reported solubility for this molecule. Cl.NCCc1c[nH]c(=S)n1[C@H]1COc2c(F)cc(F)cc2C1 [Form C]
1000

====

# experiment_summary: Approximate solubilities (solvent added until a solution forms)
# Assay type: physicochemical
# test_settings: acetonitrile:water 4:1, organic solvent or mixture, acetonitrile:water 4:1; read-out: Solubility (approximate)
parameter_measured: solubility

Give the reported solubility for this compound. Cl.NCCc1c[nH]c(=S)n1[C@H]1COc2c(F)cc(F)cc2C1 [Form C]
> 40 mg/mL

====

# experiment_summary: Approximate solubilities (solvent added until a solution forms)
# Type: physicochemical
# test_settings: acetonitrile, organic solvent or mixture, acetonitrile; read-out: Solubility (approximate)
parameter_measured: solubility

Give the reported solubility for this compound. Cl.NCCc1c[nH]c(=S)n1[C@H]1COc2c(F)cc(F)cc2C1 [Form C]
< 1000 µg/mL
